# assay-target: SF9 affinity purified rat FPT (Rattus norvegicus, UniProt Q02293+Q04631)
# method-summary: PFT (FPT) inhibitory activity assay, radiolabeled farnesyl pyrophosphate and biotinyl peptide, streptavidin beads
# measurement-context: HEPES buffer pH 7.4, 30° C., 30 minutes; read-out: FTase IC50
test-readout: IC50 (nM)
Report as a plain number; the unit nM is understood.

Consider CCOc1ccc(OCc2c(O[C@H](Cn3ccnc3)c3ccccc3)ccc3c2CCCC3=O)cc1 . Its measured IC50 is 0.8

Consider O=C(NC1CCCC1)c1ccccc1S(=O)(=O)Cc1c(O[C@H](Cn2ccnc2)c2ccccc2)ccc2c1CCCC2=O . Its measured IC50 is 0.47

Consider CN(Cc1c(O[C@H](Cn2ccnc2)c2ccccc2)ccc2c1CCCC2=O)c1ccccc1 . Its measured IC50 is 4

Consider CC[C@H](CO)NC(=O)c1ccccc1S(=O)(=O)Cc1c(O[C@H](Cn2ccnc2)c2ccccc2)ccc2c1CCCC2=O . Its measured IC50 is 0.2

Consider CN(C)CCNC(=O)c1ccc(SCc2c(O[C@H](Cn3ccnc3)c3ccccc3)ccc3c2CCCC3=O)cc1 . Its measured IC50 is 3

Consider C=CCc1c(OC(Cn2ccnc2)c2ccccc2)ccc2c1CCCC2=O (racemic) . Its measured IC50 is 17

Consider CCOC(=O)CCNC(=O)c1ccccc1SCc1c(O[C@H](Cn2ccnc2)c2ccccc2)ccc2c1CCCC2=O . Its measured IC50 is 7

====

# assay-target: SF9 affinity purified rat FPT (Rattus norvegicus, UniProt Q02293+Q04631)
# Construct: made in house; host or cells: Sf9 insect cells
# method-summary: PFT (FPT) inhibitory activity assay, radiolabeled farnesyl pyrophosphate and biotinyl peptide, streptavidin beads
# Format: biochemical
# measurement-context: HEPES buffer pH 7.4, 30° C., 30 minutes; read-out: FTase IC50
test-readout: pIC50
# reply with the number alone; pIC50 is -log10 of concentration in mol/L

Consider O=C1CCCc2c1ccc(O[C@H](Cn1ccnc1)c1ccccc1)c2CNc1ccccc1 . Its measured pIC50 is 9.70

Consider COc1ccc(OCc2c(O[C@H](Cn3ccnc3)c3ccccc3)ccc3c2CCCC3=O)cc1 . Its measured pIC50 is 9.40

Consider CC[C@H](CO)NC(=O)c1cccc(S(=O)(=O)Cc2c(O[C@H](Cn3ccnc3)c3ccccc3)ccc3c2CCCC3=O)c1 . Its measured pIC50 is 9.70

Consider O=C1CCCc2c1ccc(O[C@H](Cn1ccnc1)c1ccccc1)c2COCc1ccccc1 . Its measured pIC50 is 9.10

Consider O=C1CCCc2c1ccc(O[C@H](Cn1ccnc1)c1ccccc1)c2CSCc1ccc(Cl)c(Cl)c1 [Compound 10c] . Its measured pIC50 is 8.28

Consider CC(O)CNC(=O)c1ccc(SCc2c(O[C@H](Cn3ccnc3)c3ccccc3)ccc3c2CCCC3=O)cc1 (stereo partly shown) . Its measured pIC50 is 9.70

Consider O=C(NC1CC1)c1ccccc1SCc1c(O[C@H](Cn2ccnc2)c2ccccc2)ccc2c1CCCC2=O . Its measured pIC50 is 9.70

====

# assay-target: SF9 affinity purified rat FPT (Rattus norvegicus, UniProt Q02293+Q04631)
# method-summary: PFT (FPT) inhibitory activity assay, radiolabeled farnesyl pyrophosphate and biotinyl peptide, streptavidin beads
# measurement-context: HEPES buffer pH 7.4, 30° C., 30 minutes; read-out: FTase IC50
test-readout: pIC50
# reply with the number alone; pIC50 is -log10 of concentration in mol/L

Consider O=C1CCCc2c1ccc(O[C@H](Cn1ccnc1)c1ccccc1)c2CCc1ccccc1 . Its measured pIC50 is 9.40

Consider O=C(NCc1ccco1)c1cccc(SCc2c(O[C@H](Cn3ccnc3)c3ccccc3)ccc3c2CCCC3=O)c1 . Its measured pIC50 is 9.52

Consider C=CCNC(=O)c1ccc(S(=O)(=O)Cc2c(O[C@H](Cn3ccnc3)c3ccccc3)ccc3c2CCCC3=O)cc1 . Its measured pIC50 is 9.10

Consider O=C(NCCO)c1ccccc1SCc1c(O[C@H](Cn2ccnc2)c2ccccc2)ccc2c1CCCC2=O . Its measured pIC50 is 8.40

Consider COC(=O)c1cccc(SCc2c(O[C@H](Cn3ccnc3)c3ccccc3)ccc3c2CCCC3=O)c1 . Its measured pIC50 is 8.40

Consider O=C(NC1CC1)c1ccc(SCc2c(O[C@H](Cn3ccnc3)c3ccccc3)ccc3c2CCCC3=O)cc1 . Its measured pIC50 is 9.70

Consider O=C1CCCc2c1ccc(S[C@H](Cn1ccnc1)c1ccccc1)c2CCc1ccccc1 . Its measured pIC50 is 9.70

Consider O=C(NC1CCCC1)c1ccccc1SCc1c(O[C@H](Cn2ccnc2)c2ccccc2)ccc2c1CCCC2=O . Its measured pIC50 is 9.70

Consider CC(O)CNC(=O)c1ccccc1S(=O)(=O)Cc1c(O[C@H](Cn2ccnc2)c2ccccc2)ccc2c1CCCC2=O (stereo partly drawn) . Its measured pIC50 is 9.70

Consider CC[C@H](CO)NC(=O)c1ccccc1SCc1c(O[C@H](Cn2ccnc2)c2ccccc2)ccc2c1CCCC2=O . Its measured pIC50 is 9.70

Consider O=C1CCCc2c1ccc(O[C@H](Cn1ccnc1)c1ccccc1)c2COc1ccc2ncccc2c1 [Compound 107] . Its measured pIC50 is 8.00

Consider CN(C)CCNC(=O)c1ccccc1S(=O)(=O)Cc1c(O[C@H](Cn2ccnc2)c2ccccc2)ccc2c1CCCC2=O . Its measured pIC50 is 8.22

Consider CCC(CC)OCc1c(O[C@H](Cn2ccnc2)c2ccccc2)ccc2c1CCCC2=O [Compound 19c] . Its measured pIC50 is 8.85

Consider O=C1CCCc2c1ccc(O[C@H](Cn1ccnc1)c1ccccc1)c2CCc1ccc(F)cc1 . Its measured pIC50 is 9.70

Consider O=C1CCCc2c1ccc(O[C@H](Cn1ccnc1)c1ccccc1)c2CCc1ccccn1 . Its measured pIC50 is 9.40

Consider C=CCc1c(OC(Cn2ccnc2)c2cccs2)ccc2c1CCCC2=O (racemic) . Its measured pIC50 is 8.15

Consider CCOc1ccccc1OCc1c(O[C@H](Cn2ccnc2)c2ccccc2)ccc2c1CCCC2=O . Its measured pIC50 is 9.10

Consider COCCNC(=O)c1ccccc1SCc1c(O[C@H](Cn2ccnc2)c2ccccc2)ccc2c1CCCC2=O . Its measured pIC50 is 9.70

Consider O=C1CCCc2c1ccc(O[C@H](Cn1ccnc1)c1ccccc1)c2CSc1ccc(Br)cc1 . Its measured pIC50 is 7.52

Consider COC(=O)c1cccc(OCc2c(O[C@H](Cn3ccnc3)c3ccccc3)ccc3c2CCCC3=O)c1 . Its measured pIC50 is 8.15

Consider O=C1CCC(c2cccc(Cl)c2)c2cc(O[C@H](Cn3ccnc3)c3ccccc3)ccc21 (stereo partly drawn) . Its measured pIC50 is 8.70

Consider CC(O)CNC(=O)c1ccccc1SCc1c(O[C@H](Cn2ccnc2)c2ccccc2)ccc2c1CCCC2=O (stereo partly drawn) . Its measured pIC50 is 9.70

Consider CCCCC(Cn1ccnc1)Oc1ccc2c(c1CS(=O)(=O)c1ccccc1)CCCC2=O (stereo not drawn) [Compound 63m] . Its measured pIC50 is 9.00

Consider O=C(NC1CCCC1)c1ccc(SCc2c(O[C@H](Cn3ccnc3)c3ccccc3)ccc3c2CCCC3=O)cc1 . Its measured pIC50 is 9.70

Consider CC(C)[C@@H](Cn1ccnc1)Oc1ccc2c(c1NC(=O)c1nccc3ccccc13)CCCC2=O [Compound 63h] . Its measured pIC50 is 8.60

Consider C=C(C)Cc1c(O[C@H](Cn2ccnc2)c2ccccc2)ccc2c1CCCC2=O . Its measured pIC50 is 8.30

Consider COCCNC(=O)c1cccc(S(=O)(=O)Cc2c(O[C@H](Cn3ccnc3)c3ccccc3)ccc3c2CCCC3=O)c1 . Its measured pIC50 is 9.70

Consider O=C(NC1CCCC1)c1ccc(S(=O)(=O)Cc2c(O[C@H](Cn3ccnc3)c3ccccc3)ccc3c2CCCC3=O)cc1 . Its measured pIC50 is 9.70

Consider O=C1CCCc2c1ccc(O[C@H](Cn1ccnc1)c1ccccc1)c2CN1CCN(c2ccccc2)CC1 . Its measured pIC50 is 7.47

Consider CNC(=O)c1ccc(S(=O)(=O)Cc2c(O[C@H](Cn3ccnc3)c3ccccc3)ccc3c2CCCC3=O)cc1 . Its measured pIC50 is 8.00
